- System: SN12C
- Assay protocol: NCI tumour cell line growth inhibition, 48 h
Activity calls are given as the source filed them. Cut-off read from the data, not from the text of the source: active = GI50 up to about 1.1 µM and inactive = higher.
Pick one and only one: active, inactive

Compound	Assigned category
CCC/C(Cl)=N/OC(=O)Nc1cc(C(F)(F)F)ccc1OC	inactive
COc1ccc2c(c1OC)C(=O)c1cnccc1C2=O	inactive
Cc1ccccc1/N=C/N(C)C	inactive
COc1cc2c(cc1OCCCCOc1cc(-c3ccc(F)cc3)nc(C)n1)N=C[C@@H]1CCCN1C2=O	active

Which outcome did this test record for the compound Nc1ncnc2c(C3OC(CO)C(O)C3O)n[nH]c12 (configuration not stated) ?
active

Which outcome did this test record for the compound COc1cc2cnc(-c3ccccc3)cc2cc1OC ?
inactive

Which outcome did this test record for the compound C[Si](C)(C)C1=C2C(=O)c3ccccc3C(=O)C2=C([Si](C)(C)C)[C@@H]2CCCC[C@H]12 ?
inactive
